test system: SK-BR-3; experiment: Antiproliferative activity against human SKBR3 cells incubated for 5 days by SRB assay; format: functional, cell-based; settings: SK-BR-3, 120 h
Numbered stars: 1 amine (or outer) side, 2 acyl side, 3 side chain; on linkers, the order of the positions; unused ones are H or OH. Square brackets hold non-standard residues; d marks the D form. Peptide text beside a SMILES is read from it. * marks the point of attachment. X1 = CCCCCC[C@@H](C)C[C@H](N[*:1])C(=O)[*:2]; NH((S)CH(Me)CH2NHC2H4OH) = C[C@@H](CNCCO)N*; X5 = CCCCCCC(=O)CCC[C@H](N[*:1])C(=O)[*:2]; Gly(decyl) = CCCCCCCCCC[C@H](N)C(=O)O; Aib = CC(C)(N)C(=O)O; Butyryl = CCCC(=O)*; βAla = NCCC(=O)O
measured attribute: IC50 (µM)
Respond numerically; units are µM and should not be typed.

Reference set (2 entries):
CCCCCCCCCC[C@H](NC(=O)[C@@H]1CCCN1C(=O)CCC)C(=O)NC(C)(C)C(=O)NC(C)(C)C(=O)N[C@@H](C[C@H](C)CCCCCC)C(=O)N[C@@H](CC(C)C)C(=O)NC(C)(C)C(=O)N[C@@H](CC(C)C)C(=O)NCCC(=O)N[C@@H](C)CNCCO (Butyryl-P[Gly(decyl)][Aib][Aib][X1]L[Aib]L[βAla]-{NH((S)CH(Me)CH2NHC2H4OH)}): 0.28
CCCCCCC(=O)CCC[C@H](NC(=O)[C@@H]1CCCN1C(=O)CCC)C(=O)NC(C)(C)C(=O)NC(C)(C)C(=O)N[C@@H](C[C@H](C)CCCCCC)C(=O)N[C@@H](CC(C)C)C(=O)NC(C)(C)C(=O)N[C@@H](CC(C)C)C(=O)NCCC(=O)N[C@@H](C)CNCCO (Butyryl-P[X5][Aib][Aib][X1]L[Aib]L[βAla]-{NH((S)CH(Me)CH2NHC2H4OH)}): 0.018

Query block: Identify the reported IC50 for the following entry. CCCCCC[C@@H](C)C[C@H](NC(=O)C(C)(C)NC(=O)C(C)(C)NC(=O)[C@H](CC(C)C)NC(=O)[C@@H]1CCCN1C(=O)CCC)C(=O)N[C@@H](CC(C)C)C(=O)NC(C)(C)C(=O)N[C@@H](CC(C)C)C(=O)NCCC(=O)N[C@@H](C)CNCCO (Butyryl-PL[Aib][Aib][X1]L[Aib]L[βAla]-{NH((S)CH(Me)CH2NHC2H4OH)})
Result block: 0.28
